These data points were gathered from patent US10131639B2.

# assayDetails: Phase 1 study Part 2: single-dose plasma pharmacokinetics, relative bioavailability (tablet vs AIC) and food effect in healthy subjects
# Assay type: in vivo, human
# testParameters: human, plasma, po, 200 mg, Treatment E: 1×200 mg formulated tablet, single oral dose, fasted; N=12; read-out: Cmax, Geometric Mean (ANOVA LS mean)
recordedEndpoint: Cmax (ng/mL)
Please reply with the bare figure in ng/mL and do not write the unit itself.

For the compound C[C@@H]1CC[C@@H](Nc2nc(NC(C)(C)C)ncc2C(N)=O)C[C@H]1O , what Cmax is on record?
1730
